Collected Relative fold loss of activity, FDC-P1 lactogenic assay values appear next to each entry.
Target: T1, human prolactin receptor on transfected FDC-P1 cells (human, UniProt P16471 25-622)
T1 sequence (looked up): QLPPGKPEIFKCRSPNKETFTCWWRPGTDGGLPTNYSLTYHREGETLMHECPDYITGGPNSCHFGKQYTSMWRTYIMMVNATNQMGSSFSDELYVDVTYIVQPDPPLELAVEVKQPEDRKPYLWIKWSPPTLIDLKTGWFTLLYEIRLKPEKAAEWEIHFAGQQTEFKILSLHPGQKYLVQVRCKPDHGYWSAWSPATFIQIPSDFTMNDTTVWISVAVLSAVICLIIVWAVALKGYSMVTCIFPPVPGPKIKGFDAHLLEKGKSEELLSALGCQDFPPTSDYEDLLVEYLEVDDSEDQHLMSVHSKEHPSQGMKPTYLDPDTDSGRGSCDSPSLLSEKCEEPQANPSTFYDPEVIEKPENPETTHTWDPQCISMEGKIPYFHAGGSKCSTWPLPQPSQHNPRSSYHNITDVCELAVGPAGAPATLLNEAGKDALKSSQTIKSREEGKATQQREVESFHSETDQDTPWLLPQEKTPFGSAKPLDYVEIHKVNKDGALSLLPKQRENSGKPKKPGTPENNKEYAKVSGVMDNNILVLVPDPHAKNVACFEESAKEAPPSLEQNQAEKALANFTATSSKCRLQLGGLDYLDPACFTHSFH
Assay: cell-based or functional assay
Please state the value followed by its unit.

INPUT: Which measured Relative fold loss of activity, FDC-P1 lactogenic assay value corresponds to L171E human prolactin (ligand) MLPICPGGAARCQVTLRDLFDRAVVLSHYIHNLSSEMFSEFDKRYTHGRGFITKAINSCHTSSLATPEDKEQAQQMNQKDFLSLIVSILRSWNEPLYHLVTEVRGMQEAPEAILSKAVEIEEQTKRLLEGMELIVSQVHPETKENEIYPVWSGLPSLQMADEESRLSAYYNELHCLRRDSHKIDNYLKLLKCRIIHNNNC ?
OUTPUT: 8 fold

INPUT: Can you look up the measured Relative fold loss of activity, FDC-P1 lactogenic assay of L95E human prolactin (ligand) MLPICPGGAARCQVTLRDLFDRAVVLSHYIHNLSSEMFSEFDKRYTHGRGFITKAINSCHTSSLATPEDKEQAQQMNQKDFLSLIVSILRSWNEPEYHLVTEVRGMQEAPEAILSKAVEIEEQTKRLLEGMELIVSQVHPETKENEIYPVWSGLPSLQMADEESRLSAYYNLLHCLRRDSHKIDNYLKLLKCRIIHNNNC for me?
OUTPUT: 7.8 fold

INPUT: // Relative fold loss of activity, FDC-P1 lactogenic assay lookup, key: L98E human prolactin (ligand) MLPICPGGAARCQVTLRDLFDRAVVLSHYIHNLSSEMFSEFDKRYTHGRGFITKAINSCHTSSLATPEDKEQAQQMNQKDFLSLIVSILRSWNEPLYHEVTEVRGMQEAPEAILSKAVEIEEQTKRLLEGMELIVSQVHPETKENEIYPVWSGLPSLQMADEESRLSAYYNLLHCLRRDSHKIDNYLKLLKCRIIHNNNC
OUTPUT: 87.7 fold
